TEST_NAME: A549 NSCLC cell proliferation inhibitors – ATP luminescence, human non-small cell lung line, primary screen (AID 371);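 further: compound exposure lasted 72 h before the ATP read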
EXPERIMENTAL_SETUP: at 10 µM
The campaign covered roughly 3,300 compounds. About 280 (8.5%) were called active.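 How the source made its calls: active means mean growth inhibition over the two runs of 50% or more; inactive means mean growth inhibition under 50%.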 The full list was thinned out, with actives kept by preference.
Classes used: active, inactive

[
  {
    "COMPOUND": "CCn1cc(C(=O)NCCCN(C)C)c(=O)c2cc(F)c(N3CCN(C)CC3)cc21",
    "QUALITATIVE_LABEL": "inactive"
  },
  {
    "COMPOUND": "CN1CCN(Cc2c(O)ccc3c(-c4ccccc4)cc(=O)oc23)CC1",
    "QUALITATIVE_LABEL": "inactive"
  },
  {
    "COMPOUND": "CCOC(=O)Cc1nnc(Nc2cccc(O)c2)c2ccccc12",
    "QUALITATIVE_LABEL": "inactive"
  },
  {
    "COMPOUND": "COC(=O)Nc1nc2ccc(Sc3ccccc3)cc2[nH]1",
    "QUALITATIVE_LABEL": "active"
  },
  {
    "COMPOUND": "COc1ccc(C(=O)CCN2CCCCCC2)cc1",
    "QUALITATIVE_LABEL": "inactive"
  },
  {
    "COMPOUND": "Cc1c(NC(=O)c2coc(=O)c(Br)c2)c(=O)n(-c2ccccc2)n1C",
    "QUALITATIVE_LABEL": "active"
  },
  {
    "COMPOUND": "Cc1cc(/C(O)=C2\\C(=O)C(=O)N(CCN(C)C)C2c2ccncc2)ccc1OCc1ccccc1 (stereo unspecified)",
    "QUALITATIVE_LABEL": "inactive"
  },
  {
    "COMPOUND": "COc1ccc(C(=O)C(CN2CCCC2)c2ccccc2)cc1 (stereo unspecified)",
    "QUALITATIVE_LABEL": "active"
  },
  {
    "COMPOUND": "COc1ccc(C2/C(=C(\\O)c3ccc4c(c3)OCCO4)C(=O)C(=O)N2CCCN(C)C)cc1 (stereo unspecified)",
    "QUALITATIVE_LABEL": "inactive"
  },
  {
    "COMPOUND": "CCCSc1ccc2nc(NC(=O)OC)[nH]c2c1",
    "QUALITATIVE_LABEL": "active"
  },
  {
    "COMPOUND": "NS(=O)(=O)c1ccc(C(=O)O)cc1",
    "QUALITATIVE_LABEL": "inactive"
  },
  {
    "COMPOUND": "CC[C@]1(O)CC2CN(CCc3c([nH]c4ccccc34)[C@@](C(=O)OC)(c3cc4c(cc3OC)N(C=O)[C@H]3[C@@](O)(C(=O)OC)[C@H](OC(C)=O)[C@]5(CC)C=CCN6CC[C@]43[C@@H]65)C2)C1 (stereo partly specified)",
    "QUALITATIVE_LABEL": "active"
  },
  {
    "COMPOUND": "CCC(=O)Nc1nc(C)c(Oc2ccccc2)c(=O)[nH]1",
    "QUALITATIVE_LABEL": "inactive"
  },
  {
    "COMPOUND": "CCn1cc(C(=O)NCc2ccco2)c(=O)c2cc(F)c(N3CCN(C(=O)c4ccco4)CC3)cc21",
    "QUALITATIVE_LABEL": "active"
  },
  {
    "COMPOUND": "Cc1c(NC(=O)C(CC(=O)O)NCc2ccco2)c(=O)n(-c2ccccc2)n1C (stereo unspecified)",
    "QUALITATIVE_LABEL": "inactive"
  },
  {
    "COMPOUND": "CC(=O)Oc1cccc2c1C(=O)c1c(OC(C)=O)cc(C(=O)O)cc1C2=O",
    "QUALITATIVE_LABEL": "active"
  },
  {
    "COMPOUND": "CC1(C(=O)CSc2nc3ccccc3s2)CCC(=O)O1 (stereo unspecified)",
    "QUALITATIVE_LABEL": "inactive"
  },
  {
    "COMPOUND": "COc1ccc(C(O)C(CN2CCOCC2)c2ccccc2)cc1 (stereo unspecified)",
    "QUALITATIVE_LABEL": "inactive"
  },
  {
    "COMPOUND": "CC(=O)Nc1ccc(Oc2ccc3nc(C)[nH]c3c2)cc1",
    "QUALITATIVE_LABEL": "inactive"
  },
  {
    "COMPOUND": "COC(=O)CSC1=C(C#N)C(=O)NC2(CCCCC2)S1",
    "QUALITATIVE_LABEL": "inactive"
  },
  {
    "COMPOUND": "O=C(O)c1cc(O)c2c(c1)C(=O)c1cccc(O)c1C2=O",
    "QUALITATIVE_LABEL": "active"
  }
]
